Taken from patent US20260174875A1.

assayed-target: T1, human GIP receptor (human, UniProt P48546 22-466)
T1 sequence (looked up): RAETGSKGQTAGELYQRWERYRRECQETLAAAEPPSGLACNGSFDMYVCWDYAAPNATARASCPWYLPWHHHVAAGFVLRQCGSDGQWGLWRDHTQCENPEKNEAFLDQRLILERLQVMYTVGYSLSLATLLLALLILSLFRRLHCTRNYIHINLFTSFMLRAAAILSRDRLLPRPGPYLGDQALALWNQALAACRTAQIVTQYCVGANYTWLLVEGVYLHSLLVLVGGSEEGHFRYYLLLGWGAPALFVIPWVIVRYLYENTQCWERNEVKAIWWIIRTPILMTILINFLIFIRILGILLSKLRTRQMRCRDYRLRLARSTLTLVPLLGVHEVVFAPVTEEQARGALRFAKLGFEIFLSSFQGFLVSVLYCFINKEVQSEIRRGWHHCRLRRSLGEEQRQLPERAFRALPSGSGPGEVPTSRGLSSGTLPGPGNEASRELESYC
experimental-details: cell-based or functional assay
Numbered stars: 1 amine (or outer) side, 2 acyl side, 3 side chain; on linkers, the order of the positions; unused ones are H or OH. Square brackets hold non-standard residues; d marks the D form. Side chains are listed from the residue outwards. * marks the point of attachment. C18 diacid = O=C(O)CCCCCCCCCCCCCCCCC(=O)*; γGlu = O=C(O)[C@H](CCC(=O)[*:2])N[*:1]; Chem. 27 = not defined here; AEEA = NCCOCCOCC(=O)O; Aib = CC(C)(N)C(=O)O
readout: hGIPR Potency, 1% HSA, EC50 [pM] (pM)

INSERT INTO assay_data (binder, readout, value_measured) VALUES
  ('Compound 104 (reading uncertain) peptide: H[Aib]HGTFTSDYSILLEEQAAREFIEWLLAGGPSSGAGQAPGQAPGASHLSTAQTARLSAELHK(Chem. 27)LATLPRTETGSGSP-NH2', 'hGIPR Potency, 1% HSA, EC50 [pM]', 17.3),
  ('Compound 89 (peptide) peptide: H[Aib]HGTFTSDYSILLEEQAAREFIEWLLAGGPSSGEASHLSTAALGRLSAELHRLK([AEEA-AEEA-γGlu-C18 diacid])TLPRTETGSGSP-NH2', 'hGIPR Potency, 1% HSA, EC50 [pM]', 30.6),
  ('Compound 92 (peptide) peptide: H[Aib]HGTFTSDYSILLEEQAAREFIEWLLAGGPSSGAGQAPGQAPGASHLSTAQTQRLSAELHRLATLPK([AEEA-AEEA-γGlu-C18 diacid])TETGSGSP-NH2', 'hGIPR Potency, 1% HSA, EC50 [pM]', 8.53),
  ('Compound 74 (peptide) peptide: Y[Aib]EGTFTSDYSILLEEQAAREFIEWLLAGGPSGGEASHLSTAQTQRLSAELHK([AEEA-AEEA-γGlu-C18 diacid])LATLPRTETGSGSP-NH2', 'hGIPR Potency, 1% HSA, EC50 [pM]', 18.7);
